# test: in vivo
# cond: Sprague-Dawley, rat, plasma, iv, 1 mg/kg
Reported clearance values are given for each entry in this list.
Give the number; mL/min/kg is assumed, so skip it.

smiles str: CC(C)n1c(-c2nc3c(s2)CCOc2cc(-c4cnn(CC(C)(C)O)c4)ccc2-3)n[nH]c1=O
measured: 84
//
smiles str: CC(C)n1ncnc1-c1nc2c(s1)CCOc1cc(-c3cnn(C(C)(C)C(N)=O)c3)ccc1-2
measured: 10

Alright, here's another compound for you.
**Q:** Look up clearance for this compound: CC(C)n1ncnc1-c1nc2c(s1)CCOc1cc(C3CN(C(=O)C(C)(C)N)C3)ccc1-2
**A:** 60

Entry source: ChEMBL document CHEMBL2380305
